systemTested: ERα (Homo sapiens, UniProt P03372)
Sequence (P03372 1-595): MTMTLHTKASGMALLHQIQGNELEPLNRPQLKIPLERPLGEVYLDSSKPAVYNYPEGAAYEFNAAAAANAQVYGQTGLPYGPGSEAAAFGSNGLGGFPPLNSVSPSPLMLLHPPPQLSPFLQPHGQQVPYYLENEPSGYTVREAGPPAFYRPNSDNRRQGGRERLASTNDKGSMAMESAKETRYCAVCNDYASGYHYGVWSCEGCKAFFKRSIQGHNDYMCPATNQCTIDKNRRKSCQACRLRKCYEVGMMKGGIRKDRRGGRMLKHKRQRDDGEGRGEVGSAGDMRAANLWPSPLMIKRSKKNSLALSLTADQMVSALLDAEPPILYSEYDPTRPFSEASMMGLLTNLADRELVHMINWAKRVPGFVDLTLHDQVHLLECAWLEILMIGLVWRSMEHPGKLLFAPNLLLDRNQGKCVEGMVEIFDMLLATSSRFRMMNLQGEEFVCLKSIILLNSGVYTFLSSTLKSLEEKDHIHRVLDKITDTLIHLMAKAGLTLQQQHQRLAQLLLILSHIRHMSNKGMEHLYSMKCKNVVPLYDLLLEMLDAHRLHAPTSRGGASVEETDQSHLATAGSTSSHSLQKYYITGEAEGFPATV
procedureSummary: ERα reporter (luciferase) transactivation assay in transfected HEK293 cells
Type: cell-based
Set-up: expressed in transfected cells; host or cells: HEK293
reportedConditions: sample concentration 10 μM, 24 hours, mean of at least three independent transfections
If the reported ERα receptor activation relative to 10 nM E2 corresponding 100 equals or exceeds 30%, assign t. If not, assign f.

As a guide, the following entries are already answered.
>>> grouplabel("c1ccc(CCC2=NOC(Cc3ccccc3)C2)cc1 (single isomer, unassigned) [109a]")
"t"
>>> grouplabel("Oc1ccc(CCCC2=NOC(Cc3ccccc3)C2)cc1 (single isomer, unassigned) [99b]")
"t"

Hello, I need to know if c1ccc(CCC2CC(c3ccccc3)=NO2)cc1 (single isomer, unassigned) [111a] has measured ERα receptor activation relative to 10 nM E2 corresponding 100 not below 30%. Thanks!
f

Hello, I need to know if Oc1ccc(CCCC2=NOC(Cc3ccccc3)C2)cc1O (single isomer, unassigned) [102b] has measured ERα receptor activation relative to 10 nM E2 corresponding 100 not below 30%. Thanks!
f

Hello, I need to know if Oc1ccc(C2=NOC(Cc3ccccc3)C2)cc1 (single isomer, unassigned) [80a] has measured ERα receptor activation relative to 10 nM E2 corresponding 100 not below 30%. Thanks!
t

Hello, I need to know if c1ccc(CCCC2=NOC(Cc3ccccc3)C2)cc1 (single isomer, unassigned) [114a] has measured ERα receptor activation relative to 10 nM E2 corresponding 100 not below 30%. Thanks!
t

Hello, I need to know if Oc1ccc(CCC2=NOC(Cc3ccc(F)cc3)C2)cc1 (single isomer, unassigned) [98b] has measured ERα receptor activation relative to 10 nM E2 corresponding 100 not below 30%. Thanks!
f

Hello, I need to know if Oc1ccc(CCCC2=NOC(Cc3ccccc3)C2)cc1 (single isomer, unassigned) [99a] has measured ERα receptor activation relative to 10 nM E2 corresponding 100 not below 30%. Thanks!
t

Hello, I need to know if Oc1ccc(C2=NOC(Cc3ccccc3)C2)cc1 (single isomer, unassigned) [80b] has measured ERα receptor activation relative to 10 nM E2 corresponding 100 not below 30%. Thanks!
t

Hello, I need to know if COc1ccc(CC2CC(CCc3ccccc3)=NO2)cc1 (single isomer, unassigned) [65a] has measured ERα receptor activation relative to 10 nM E2 corresponding 100 not below 30%. Thanks!
f

Hello, I need to know if Oc1ccc(CC2=NOC(c3ccccc3)C2)cc1 (single isomer, unassigned) [84a] has measured ERα receptor activation relative to 10 nM E2 corresponding 100 not below 30%. Thanks!
f

Hello, I need to know if Oc1ccc(CCC2=NOC(Cc3ccc(O)cc3)C2)cc1 (single isomer, unassigned) [96b] has measured ERα receptor activation relative to 10 nM E2 corresponding 100 not below 30%. Thanks!
t

Hello, I need to know if c1ccc(CCC2=NOC(c3ccccc3)C2)cc1 (single isomer, unassigned) [110b] has measured ERα receptor activation relative to 10 nM E2 corresponding 100 not below 30%. Thanks!
f

Hello, I need to know if Oc1cccc(CCC2=NOC(CCc3ccccc3)C2)c1 (single isomer, unassigned) [105a] has measured ERα receptor activation relative to 10 nM E2 corresponding 100 not below 30%. Thanks!
f

Hello, I need to know if Oc1ccc(CC2=NOC(c3ccccc3)C2)cc1 (single isomer, unassigned) [84b] has measured ERα receptor activation relative to 10 nM E2 corresponding 100 not below 30%. Thanks!
f

Hello, I need to know if Fc1ccc(CC2CC(CCc3ccccc3)=NO2)cc1 (single isomer, unassigned) [66a] has measured ERα receptor activation relative to 10 nM E2 corresponding 100 not below 30%. Thanks!
t

====

systemTested: ERβ (Homo sapiens)
Sequence (Q92731 whole entry): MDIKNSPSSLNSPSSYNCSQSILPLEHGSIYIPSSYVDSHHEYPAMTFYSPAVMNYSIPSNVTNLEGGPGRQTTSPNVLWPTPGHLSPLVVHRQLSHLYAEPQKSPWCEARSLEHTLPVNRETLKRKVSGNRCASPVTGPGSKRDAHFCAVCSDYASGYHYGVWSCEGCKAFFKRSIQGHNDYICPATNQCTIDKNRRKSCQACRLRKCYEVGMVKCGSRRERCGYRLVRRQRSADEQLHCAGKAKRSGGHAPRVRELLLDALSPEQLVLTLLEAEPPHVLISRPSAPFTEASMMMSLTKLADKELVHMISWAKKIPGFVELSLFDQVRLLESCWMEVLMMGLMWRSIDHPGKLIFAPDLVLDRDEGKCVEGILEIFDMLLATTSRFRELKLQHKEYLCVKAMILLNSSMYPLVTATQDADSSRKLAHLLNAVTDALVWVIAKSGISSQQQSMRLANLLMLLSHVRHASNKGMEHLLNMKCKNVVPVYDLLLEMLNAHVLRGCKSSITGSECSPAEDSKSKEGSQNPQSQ
procedureSummary: ERβ reporter (luciferase) transactivation assay in transfected HEK293 cells
Assay type: cell-based
Design: expressed in transfected cells; host or cells: HEK293
reportedConditions: sample concentration 10 μM, 24 hours, mean of at least three independent transfections
Description: Determination of the Estrogen Activity of the Compounds: Cell Culture, Transfection and Reporter Assays All other reagents were of reagent grade from Sigma or Fluka. […] After 24 hours, the cells were washed, lysed and luciferase and β-galactosidase activities were determined from 20 μl of lysates with the Victor^2TM reader (PerkinElmer Wallac, Turku, Finland). […]
The following compounds are listed with their measured ERβ receptor activation relative to 10 nM E2 corresponding 100 values.
Output spec: scalar in %, unitless text.

>>> readoutvalue("Oc1ccccc1CCC1=NOC(Cc2ccc(F)cc2)C1 (single isomer, unassigned) [97a]")
3.4

Now look at this one.
Record request: ERβ receptor activation relative to 10 nM E2 corresponding 100 value, item Oc1ccc(CCC2=NOC(Cc3ccccc3)C2)cc1 (single isomer, unassigned) [93a]
143.1

====

quantityName: melting point

>>> readoutvalue("Oc1ccccc1CCC1=NOC(Cc2ccc(F)cc2)C1 (centres unmarked)")
"124.8 to 126.4 °C"
>>> readoutvalue("Oc1cccc(CCC2=NOC(Cc3ccccc3)C2)c1 (centres unmarked)")
"120.6 to 122.8 °C"
>>> readoutvalue("COc1ccc(CC2CC(c3ccc(Cl)cc3)=NO2)cc1OC (centres unmarked)")
"89 to 90.4 °C"
>>> readoutvalue("COc1ccc(CC2CC(c3c(Cl)cccc3Cl)=NO2)cc1 (centres unmarked)")
"90.1 to 90.6 °C"

Now look at this one.
Record request: melting point value, item COc1ccc(C2=NOC(CCc3ccccc3)C2)cc1 (centres unmarked)
69.7 to 71.9 °C

====

systemTested: UniProtKB P03372
procedureSummary: ERα reporter (luciferase) transactivation assay in transfected HEK293 cells
Assay type: cell-based
Parameters: expressed in transfected cells; host or cells: HEK293
reportedConditions: sample concentration 10 μM, 24 hours, mean of at least three independent transfections
Procedure: Determination of the Estrogen Activity of the Compounds: Cell Culture, Transfection and Reporter Assays All other reagents were of reagent grade from Sigma or Fluka. […] After 24 hours, the cells were washed, lysed and luciferase and β-galactosidase activities were determined from 20 μl of lysates with the Victor^2TM reader (PerkinElmer Wallac, Turku, Finland). […]
If the reported ERα receptor activation relative to 10 nM E2 corresponding 100 equals or exceeds 40%, assign condition met. If not, assign condition not met.

Hello, I need to know if Oc1ccc(CCCC2=NOC(c3ccccc3)C2)cc1 (single isomer, unassigned) [88a] has measured ERα receptor activation relative to 10 nM E2 corresponding 100 not below 40%. Thanks!
condition met

====

systemTested: ERα (Homo sapiens)
Sequence (P03372 1-595): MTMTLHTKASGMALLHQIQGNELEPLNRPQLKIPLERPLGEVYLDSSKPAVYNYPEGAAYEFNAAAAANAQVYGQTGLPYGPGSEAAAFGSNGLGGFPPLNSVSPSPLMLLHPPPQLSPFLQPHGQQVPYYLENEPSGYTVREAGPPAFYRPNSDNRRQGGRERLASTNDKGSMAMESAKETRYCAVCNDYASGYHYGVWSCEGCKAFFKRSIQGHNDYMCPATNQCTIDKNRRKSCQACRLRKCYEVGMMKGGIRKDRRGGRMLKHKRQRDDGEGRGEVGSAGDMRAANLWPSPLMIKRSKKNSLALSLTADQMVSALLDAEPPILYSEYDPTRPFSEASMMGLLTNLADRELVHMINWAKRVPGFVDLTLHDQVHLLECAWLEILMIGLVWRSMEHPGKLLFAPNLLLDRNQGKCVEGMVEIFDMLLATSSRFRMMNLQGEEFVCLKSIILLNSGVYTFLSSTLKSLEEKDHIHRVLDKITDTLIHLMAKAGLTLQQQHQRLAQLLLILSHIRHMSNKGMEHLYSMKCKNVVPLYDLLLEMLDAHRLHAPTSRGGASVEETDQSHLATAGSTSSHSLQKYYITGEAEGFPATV
procedureSummary: ERα reporter (luciferase) transactivation assay in transfected HEK293 cells
Format: cell-based
Parameters: expressed in transfected cells; host or cells: HEK293
reportedConditions: sample concentration 10 μM, 24 hours, mean of at least three independent transfections
quantityName: ERα receptor activation relative to 10 nM E2 corresponding 100 (%)
Output spec: scalar in %, unitless text.

Record request: ERα receptor activation relative to 10 nM E2 corresponding 100 value, item c1ccc(CCC2=NOC(Cc3ccc4ccccc4c3)C2)cc1 (single isomer, unassigned) [68a]
22.3

Record request: ERα receptor activation relative to 10 nM E2 corresponding 100 value, item Oc1ccc(CC2CC(CCc3ccccc3O)=NO2)cc1 (single isomer, unassigned) [95a]
20.4

Record request: ERα receptor activation relative to 10 nM E2 corresponding 100 value, item CC1(c2ccccc2)CC(CCc2ccccc2)=NO1 (single isomer, unassigned) [71a]
8.1

Record request: ERα receptor activation relative to 10 nM E2 corresponding 100 value, item Oc1ccc(CCC2=NOC(Cc3ccc(O)cc3)C2)cc1 (single isomer, unassigned) [96a]
76.2

Record request: ERα receptor activation relative to 10 nM E2 corresponding 100 value, item Oc1ccccc1CCC1=NOC(Cc2ccc(F)cc2)C1 (single isomer, unassigned) [97a]
82.0
